Target or system: canine TRPM8 (Canis lupus familiaris)
Construct: expressed in transfected cells
Sequence (Q1A7N1 1-1104): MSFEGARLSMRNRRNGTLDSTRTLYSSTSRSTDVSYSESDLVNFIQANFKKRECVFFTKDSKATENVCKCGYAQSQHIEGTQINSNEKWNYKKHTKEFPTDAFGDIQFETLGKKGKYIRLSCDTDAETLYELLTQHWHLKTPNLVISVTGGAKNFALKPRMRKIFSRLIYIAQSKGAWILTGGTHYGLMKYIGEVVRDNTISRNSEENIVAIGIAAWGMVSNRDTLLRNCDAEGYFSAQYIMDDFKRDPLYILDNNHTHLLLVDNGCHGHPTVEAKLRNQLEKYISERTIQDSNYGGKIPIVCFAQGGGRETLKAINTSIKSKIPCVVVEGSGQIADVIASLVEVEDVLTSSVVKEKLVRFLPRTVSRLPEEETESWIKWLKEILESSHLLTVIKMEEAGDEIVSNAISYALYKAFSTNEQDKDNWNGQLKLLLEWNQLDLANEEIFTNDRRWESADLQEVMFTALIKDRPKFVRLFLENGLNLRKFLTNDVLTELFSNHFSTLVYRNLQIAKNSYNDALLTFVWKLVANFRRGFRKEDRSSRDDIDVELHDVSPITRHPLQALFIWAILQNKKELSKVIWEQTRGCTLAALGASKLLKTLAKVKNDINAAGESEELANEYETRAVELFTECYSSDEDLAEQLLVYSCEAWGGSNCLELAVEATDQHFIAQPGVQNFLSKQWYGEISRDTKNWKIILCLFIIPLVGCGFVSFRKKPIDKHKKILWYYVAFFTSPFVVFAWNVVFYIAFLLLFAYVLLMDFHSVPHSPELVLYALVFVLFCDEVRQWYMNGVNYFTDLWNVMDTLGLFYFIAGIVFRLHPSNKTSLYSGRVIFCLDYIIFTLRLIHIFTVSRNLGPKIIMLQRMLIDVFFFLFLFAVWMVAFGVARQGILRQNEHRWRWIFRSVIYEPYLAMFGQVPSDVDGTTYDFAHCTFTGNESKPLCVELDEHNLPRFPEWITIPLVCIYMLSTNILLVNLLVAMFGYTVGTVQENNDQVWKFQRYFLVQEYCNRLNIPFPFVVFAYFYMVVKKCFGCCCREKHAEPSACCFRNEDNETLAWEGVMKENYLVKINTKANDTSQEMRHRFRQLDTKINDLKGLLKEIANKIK
Assay name: In vitro canine TRPM8 functional assay (icilin-induced intracellular Ca2+, FLIPR/FDSS)
Type: cell-based
Measurement context: 0.200 μM compound; HEK293 cells stably expressing canine TRPM8; icilin challenge (~80% maximal response); read-out: % Inh. @ 0.200 μM
Structures can show the parent of a compound that is named as a salt.
Measure: inhibition at 0.2 µM (%)
// return numeric value only (unit: %, not printed)

> print(dat)
                                   compound                       target.or.system  result.value
1  Clc1ccccc1-c1ccc2[nH]c(C3=NOC4(CCCCC4)C3)nc2c1 [Cpd 45, hydrochloride]  canine TRPM8 (Canis lupus familiaris)            97
2  Fc1ccccc1-c1cc(C(F)(F)F)c2[nH]c(C3=NOC4(CCCCC4)C3)nc2c1 [Cpd 53, hydrochloride]  canine TRPM8 (Canis lupus familiaris)            97
3  Cc1cc(-c2c(F)cccc2F)cc2nc(C3=NOC4(CCCCC4)C3)[nH]c12 [Cpd 48, hydrochloride]  canine TRPM8 (Canis lupus familiaris)            97
4  FC(F)(F)c1cc(-c2ccccc2Cl)cc2nc(C3=NOC4(CCCCC4)C3)[nH]c12 [Cpd 30, hydrochloride]  canine TRPM8 (Canis lupus familiaris)            97
5  Cc1c(-c2ccccc2C(F)(F)F)cc(C)c2[nH]c(C3=NOC4(CCCCC4)C3)nc12 [Cpd 54, hydrochloride]  canine TRPM8 (Canis lupus familiaris)            97

query: Query: inhibition at 0.2 µM; subject: FC(F)(F)Oc1ccccc1-c1cc(Cl)c2[nH]c(C3=NOC4(CCCCC4)C3)nc2c1 [Cpd 50, methanesulfonate]
result: 101

query: Looking for the measured inhibition at 0.2 µM of CC1(C)CCC2(CC1)CC(c1nc3cc(-c4ccccc4C(F)(F)F)ccc3[nH]1)=NO2 [Cpd 36, hydrochloride] , can you help?
result: 99

---

Target or system: UniProt Q1A7N1
Assay name: In vitro canine TRPM8 functional assay (icilin-induced intracellular Ca2+, FLIPR/FDSS)
Measurement context: HEK293 cells stably expressing canine TRPM8; icilin challenge; eight-point dose-response
Structures can show the parent of a compound that is named as a salt.
Threshold 4 nM. IC50 below it: 1 (yes). IC50 at it or above: 0 (no).

Reference set (3 entries):
> print(dat)
                                   compound  target.or.system  assigned.class
1  CC1C(c2nc3cc(-c4ccccc4C(F)(F)F)cc(C(F)(F)F)c3[nH]2)=NOC12CCCCC2 (centres unmarked) [Cpd 28, hydrochloride]    UniProt Q1A7N1         1 (yes)
2  FC(F)(F)Oc1ccccc1-c1ccc2nc(C3=NC4(CCCCC4)CO3)[nH]c2c1    UniProt Q1A7N1          0 (no)
3  Cc1cc(-c2ccccc2OC(F)F)cc2nc(C3=NOC4(CCCCC4)C3)[nH]c12 [Cpd 20, hydrochloride]    UniProt Q1A7N1         1 (yes)

query: Hello, is IC50 of the following compound strictly smaller than 4 nM? Cc1cc(-c2ccccc2F)cc2nc(C3=NOC4(CCCCC4)C3)[nH]c12 [Cpd 47, hydrochloride]
result: 0 (no)

---

Target or system: canine TRPM8 (Canis lupus familiaris)
Construct: expressed in transfected cells
Assay name: In vitro canine TRPM8 functional assay (icilin-induced intracellular Ca2+, FLIPR/FDSS);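 also: intracellular Ca2+ tracked with a Ca2+-sensitive fluorescent dye, compound applied 5 min before icilin was added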
Assay type: cell-based
Measurement context: HEK293 cells stably expressing canine TRPM8; icilin challenge; eight-point dose-response
Counter-ions that a name gives are not always drawn.
# pIC50 per entry
# reply with the number alone; pIC50 is -log10 of concentration in mol/L

Known pIC50 results, listed for orientation:
> print(dat)
                                   molecule                       target.or.system  measure  result.value
1  Cc1cc(-c2ccccc2C(F)(F)F)cc2nc(C3=NOC4(CCOCC4)C3)[nH]c12 [Cpd 32, hydrochloride]  canine TRPM8 (Canis lupus familiaris)    pIC50          8.31
2  Fc1ccccc1-c1cc(Cl)c2[nH]c(C3=NOC4(CCCCC4)C3)nc2c1 [Cpd 49, methanesulfonate]  canine TRPM8 (Canis lupus familiaris)    pIC50          8.21
3  Fc1cccc(F)c1-c1cc(Cl)c2[nH]c(C3=NOC4(CCCCC4)C3)nc2c1 [Cpd 44, methanesulfonate]  canine TRPM8 (Canis lupus familiaris)    pIC50          8.68

query: Please tell me: pIC50 of FC(F)(F)c1ccccc1-c1ccc2[nH]c(C3=NC4(CCOCC4)CO3)nc2c1 , system canine TRPM8 (Canis lupus familiaris)?
result: 7.00

query: Query pIC50 on canine TRPM8 (Canis lupus familiaris) for Cc1c(-c2ccccc2C(F)(F)F)ccc2[nH]c(C3=NOC4(CCCCC4)C3)nc12 [Cpd 24, hydrochloride]
result: 8.25

query: Can you look up pIC50 on canine TRPM8 (Canis lupus familiaris) for Cc1c(-c2ccccc2C(F)(F)F)cc(C)c2[nH]c(C3=NOC4(CCCCC4)C3)nc12 [Cpd 54, hydrochloride] ?
result: 8.24

Source of measurements: patent US8232409B2
